Test name: amyloid nucleation score (Sup35N fusion, yeast selection) (log enrichment); library NNK3; higher = more nucleation; inactive = no reads after selection;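 also: zero at mode of non-aggregating sequences after 7 days selection at 30°C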
Measured endpoint: amyloid nucleation score

Would you please look over these solved cases?
[[record]]
substance = "LGRAQYETQFSATSVRLEPG"
measured_endpoint = "amyloid nucleation score"
endpoint_result = -0.142

[[record]]
substance = "IYRNKSTWWYWAWLVRNPML"
measured_endpoint = "amyloid nucleation score"
endpoint_result = "inactive"

[[record]]
substance = "LWGKNWIDVAECIVCLPQAS"
measured_endpoint = "amyloid nucleation score"
endpoint_result = "inactive"

[[record]]
substance = "FLVYLRR"
measured_endpoint = "amyloid nucleation score"
endpoint_result = 1.17

[[record]]
substance = "SSYVLNYIHLSG"
measured_endpoint = "amyloid nucleation score"
endpoint_result = 1.88

[[record]]
substance = "YYRFLQWSGGNLWTPRWAPC"
measured_endpoint = "amyloid nucleation score"
endpoint_result = "inactive"

[[record]]
substance = "SFVQEMGDPPYHKQSQQLRS"
measured_endpoint = "amyloid nucleation score"
endpoint_result = "inactive"


Now look at this entry.
Which amyloid nucleation score value is on record for YFGGRM ? inactive

* * *

amyloid nucleation score by entry:
Test name: amyloid nucleation score (Sup35N fusion, yeast selection) (log enrichment); library NNK2; higher = more nucleation; inactive = no reads after selection
Answer with a bare number; do not write a unit.

Below, each entry is followed by its recorded amyloid nucleation score result.
[[record]]
substance = "STYLFNSSHPVSVISEAQFS"
measured_endpoint = "amyloid nucleation score"
endpoint_result = -0.408

[[record]]
substance = "FWEYEPLPPQQMSTFPD"
measured_endpoint = "amyloid nucleation score"
endpoint_result = -0.106

[[record]]
substance = "VCTWYRVAIDRRINIS"
measured_endpoint = "amyloid nucleation score"
endpoint_result = 1.96

[[record]]
substance = "LPLYMTYACPVPTSIHRIIL"
measured_endpoint = "amyloid nucleation score"
endpoint_result = -0.06

[[record]]
substance = "LLEYCCYFYRN"
measured_endpoint = "amyloid nucleation score"
endpoint_result = 3.57


Value lookup for amyloid nucleation score; key = VHCCFGACGCSSWRLNLLAS 0.092

Look up amyloid nucleation score for this substance: CYSILFSLKQIDRLLITLPR -1.04

What value of amyloid nucleation score has been recorded for this entry: VNRSTELHFIVMREMVWLKS -0.287

Consider the substance shown here: YLSRWYLKILQVSWRSVHSS What is its recorded amyloid nucleation score? -0.712

Item FDVVIGMFVNLITRSKCGEW has what recorded amyloid nucleation score? 1.61

* * *

Listed here: items and their measured amyloid nucleation score.
Test name: amyloid nucleation score (Sup35N fusion, yeast selection) (log enrichment); library NNK1; higher = more nucleation; inactive = no reads after selection
// no unit string in output, number only

Completed entries (count: 3):
[[record]]
substance = "VDRVGYIP"
endpoint_result = -0.506

[[record]]
substance = "FYVMSMLIM"
endpoint_result = 0.029

[[record]]
substance = "GRDDSGWPSVVVWSPGADQA"
endpoint_result = 0.243


Name the recorded amyloid nucleation score for SMVPQTMGVSQESRCYAGSC . -0.215

Requested field: amyloid nucleation score. Item: KGFFNAITGDKIPRPSRDRR 0.174

Field request: amyloid nucleation score | item: KSVLQFETMGFVDLYFSFNL 5.49

So what's the measured amyloid nucleation score for this one? WLGLGVRALRSENVCCRAFH 1.1

Could you share which amyloid nucleation score value was measured for TVFFPFLTNSRGDRLRDCWM ? -0.65
